Tested Target: T1, soluble human insulin receptor (IR-Fc) (human, UniProt P06213 28-956)
T1 construct: extracellular domain; retains the beta-alpha-alpha-beta structure; also called sIR; sIR-Fc
Experimental Details: assay not given

- Binder: "APTFYAWFNQQTGGGS (on phage; also called ~J229) [IM445 (Δ-12-3 #6)]"
  IC50: "~2.4 µM"
